# key: entry, value: pKi
Biological target: SIK3 (Homo sapiens)
Sequence (Q9Y2K2 whole entry): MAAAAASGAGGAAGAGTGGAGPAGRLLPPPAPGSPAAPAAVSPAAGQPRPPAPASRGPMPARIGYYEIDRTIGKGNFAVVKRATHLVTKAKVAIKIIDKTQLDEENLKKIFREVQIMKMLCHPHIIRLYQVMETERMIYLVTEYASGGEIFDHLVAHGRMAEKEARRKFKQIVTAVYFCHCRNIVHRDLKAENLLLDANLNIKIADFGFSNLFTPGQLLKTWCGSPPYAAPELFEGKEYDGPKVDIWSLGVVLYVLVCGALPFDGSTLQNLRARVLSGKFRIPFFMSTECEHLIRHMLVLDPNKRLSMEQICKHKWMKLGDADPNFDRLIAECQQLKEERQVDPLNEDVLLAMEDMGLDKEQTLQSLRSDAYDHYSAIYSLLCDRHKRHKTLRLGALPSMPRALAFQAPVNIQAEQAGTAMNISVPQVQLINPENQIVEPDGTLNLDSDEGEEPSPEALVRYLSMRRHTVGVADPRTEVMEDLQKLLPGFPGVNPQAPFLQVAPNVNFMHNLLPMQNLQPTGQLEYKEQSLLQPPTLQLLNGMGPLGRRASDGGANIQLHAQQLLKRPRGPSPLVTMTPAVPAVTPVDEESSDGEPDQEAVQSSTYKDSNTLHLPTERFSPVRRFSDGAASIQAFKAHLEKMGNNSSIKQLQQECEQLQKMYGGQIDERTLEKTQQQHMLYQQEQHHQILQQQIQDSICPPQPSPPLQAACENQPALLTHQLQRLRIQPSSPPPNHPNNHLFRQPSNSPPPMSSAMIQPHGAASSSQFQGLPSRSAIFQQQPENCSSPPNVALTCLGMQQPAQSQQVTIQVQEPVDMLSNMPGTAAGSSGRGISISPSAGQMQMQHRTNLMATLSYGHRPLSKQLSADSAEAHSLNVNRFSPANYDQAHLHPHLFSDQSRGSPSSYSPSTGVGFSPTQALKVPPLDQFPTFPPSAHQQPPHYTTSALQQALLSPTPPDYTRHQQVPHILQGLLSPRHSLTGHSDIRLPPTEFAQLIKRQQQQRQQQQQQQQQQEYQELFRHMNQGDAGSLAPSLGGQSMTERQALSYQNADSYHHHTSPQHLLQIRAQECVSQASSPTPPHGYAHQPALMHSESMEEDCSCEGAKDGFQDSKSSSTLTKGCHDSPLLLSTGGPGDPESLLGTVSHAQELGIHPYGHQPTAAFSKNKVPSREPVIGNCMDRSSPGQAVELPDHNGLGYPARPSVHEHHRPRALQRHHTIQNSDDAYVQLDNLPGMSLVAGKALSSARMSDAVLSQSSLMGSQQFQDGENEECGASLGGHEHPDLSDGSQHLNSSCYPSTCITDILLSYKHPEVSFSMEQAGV
Assay: SIK3 kinase assay, IMAP fluorescence polarization
Assay type: biochemical
Conditions: 50 or 100 μM ATP; average; read-out: SIK3-AVERAGE Ki
The read-out pKi is expressed as -log10 of concentration in moles per litre.

Just so you know, measured pKi for Cc1cccc(Cl)c1N1Cc2cnc(N)nc2N(C2CNC2)C1=O came out at 8.02

Just so you know, measured pKi for Cc1cccc(F)c1N1Cc2cnc(N)nc2N([C@@H]2CCN(C)C2)C1=O came out at 7.20

Just so you know, measured pKi for Cc1cccc(F)c1N1Cc2cnc(N)nc2N([C@@H]2CCCN(C)C2)C1=O came out at 7.85

Just so you know, measured pKi for Cc1cccc(F)c1N1Cc2cnc(N)cc2N([C@H]2CCCN(C)CC2)C1=O came out at 8.21

Just so you know, measured pKi for Cc1cccc(F)c1N1Cc2cnc(N)cc2N([C@@H]2CCN(C)C2)C1=O came out at 7.42

***
Just so you know, measured pKi for Cc1cccc(F)c1N1Cc2cnc(N)nc2N([C@@H]2CCCNC2)C1=O came out at 8.00

Just so you know, measured pKi for Cc1cccc(F)c1N1Cc2cnc(N)cc2N([C@H]2CCCNC2)C1=O came out at 8.49

Just so you know, measured pKi for Cc1cccc(F)c1N1Cc2cnc(N)nc2N([C@H]2CC[C@H](N)CC2)C1=O came out at 9.13
